The values you see were collected from patent US20240270736A1.

- Measured Target: KRAS G12D (Homo sapiens, UniProt P01116, G12D)
- Sequence (P01116 1-188 isoform P01116-2 G12D): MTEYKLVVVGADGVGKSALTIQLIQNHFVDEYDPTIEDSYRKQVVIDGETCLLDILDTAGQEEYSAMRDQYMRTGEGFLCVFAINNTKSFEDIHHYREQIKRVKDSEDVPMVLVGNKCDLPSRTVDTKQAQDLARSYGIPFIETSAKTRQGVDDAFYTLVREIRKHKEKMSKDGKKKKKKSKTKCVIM
- Assay Comment: HTRF assay, interaction of KRAS G12D with SOS1
- Condition Context: Ras::SOS1 interaction, read-out: Inhibition of KRAS G12D (IC50)
Recorded IC50 for the following compounds

Q: Which measured IC50 value corresponds to CN(C)CCC1CC=CCCN2CCOc3c(Cl)c(-c4ccc(F)c5sc(N)c(C#N)c45)c(F)c4nc(nc2c34)O1 (single isomer, unassigned) ?
Result: ≤ 5 µM

Q: Which measured IC50 value corresponds to CN(C)CC1CCNC(=O)CN2CCOc3c(Cl)c(-c4ccc(F)c5sc(N)c(C#N)c45)c(F)c4nc(nc2c34)O1 (stereo not drawn) ?
Result: ≤ 5 µM

Turning now to a further compound:
Q: Which measured IC50 value corresponds to CN(C)CC1CNC(=O)CN2CCOc3c(Cl)c(-c4ccc(F)c5sc(N)c(C#N)c45)c(F)c4nc(nc2c34)OC1 (stereo not drawn) ?
Result: ≤ 5 µM
